Listed compounds paired with reported pIC50
- target entity: FKBP (Homo sapiens)
- measurement notes: PPIase Inhibition Assay
- Assay type: biochemical
- cond: concentration of inhibitor required for 50% inhibition of enzyme activity; FKBP, substrate Succinyl-Ala-Phe-Pro-Phe-para-nitroanilide; TABLE I
pIC50: −log10 of the molar value. Counter-ions that a name gives are not always drawn.
measurement kind: pIC50

- CC[C@H](C)[C@H](NC(=O)[C@@H]1CCCN1CC(=O)OCC=C(C)CCC=C(C)CCC=C(C)C)C(=O)NCc1ccccc1: < 5.30
- CC[C@H](C)[C@H](NC(=O)[C@@H]1CCCN1CC(=O)c1cccc(OCc2ccccc2)c1)C(=O)NCc1ccccc1: > 5.30
- CC[C@H](C)[C@H](NC(=O)[C@@H]1CCCN1CC(=O)O[C@@H](c1ccccc1)C(C)C)C(=O)NCc1ccccc1: 5.92
- CC[C@H](C)[C@H](NC(=O)[C@@H]1CCCN1CC(=O)C1CC2CC(C1C)C2(C)C)C(=O)NCc1ccccc1 (stereo partly shown): > 5.30
- COc1cc(C(=O)CN2CCC[C@H]2C(=O)NCCc2ccc(N)cc2)cc(OC)c1OC [Example 125, Dihydrochloride]: < 5.30
- CC[C@H](C)[C@H](NC(=O)[C@@H]1CCCCN1CC(=O)OCc1ccccc1)C(=O)NCc1ccccc1: > 4.30
- CC[C@H](C)[C@H](NC(=O)[C@@H]1CCCN1CC(=O)c1ccc2ccccc2c1)C(=O)NCc1ccccc1: 5.47

###

- target entity: FKBP (Homo sapiens, UniProt P62942)
- Sequence (P62942 whole entry): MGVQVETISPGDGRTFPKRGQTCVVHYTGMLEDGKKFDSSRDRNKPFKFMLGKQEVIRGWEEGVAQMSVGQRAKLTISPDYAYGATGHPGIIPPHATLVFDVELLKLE
- measurement notes: PPIase Inhibition Assay
- Type: biochemical
measurement kind: IC50

- CC[C@H](C)[C@H](NC(=O)[C@@H]1CCCN1CC(=O)C1CCC2CCCC21)C(=O)NCc1ccccc1 (relative stereo) [Example 40]: < 5 µM
- CC[C@H](C)[C@H](NC(=O)[C@@H]1CCCN1CC(=O)c1ccc(-c2ccccc2)cc1)C(=O)NCc1ccccc1 [Example 9]: < 50 µM
- CC[C@H](C)[C@H](NC(=O)[C@@H]1CCCN1CC(=O)c1ccc(-c2ccccc2)cc1)C(=O)N1CCc2ccccc2C1 [Example 50]: 50 µM
- CC[C@H](C)[C@H](NC(=O)[C@@H]1CCCN1CC(=O)c1ccco1)C(=O)NCc1ccccc1 [Example 37]: > 50 µM
- CC[C@H](C)[C@H](NC(=O)[C@@H]1CCCN1CC(=O)OC)C(=O)NCc1ccccc1 [Example 6]: < 50 µM
- O=C(CN1CCC[C@H]1C(=O)N[C@@H](Cc1ccccc1)C(=O)NCc1ccccc1)c1ccc(-c2ccccc2)cc1 [Example 53]: > 50 µM
- CC[C@H](C)[C@H](NC(=O)[C@@H]1CCCN1CC(=O)c1ccc(-c2ccccc2)cc1)C(=O)OCc1ccccc1 [Example 51]: > 50 µM
- CSCC[C@H](NC(=O)[C@@H]1CCCN1CC(=O)c1ccc(-c2ccccc2)cc1)C(=O)NCc1ccccc1 [Example 54]: > 50 µM
- CC[C@H](C)[C@H](NC(=O)[C@@H]1CCCN1CC(=O)c1ccc(-c2ccccc2)cc1)C(=O)NC(C)(C)C [Example 52]: < 50 µM

###

- target entity: FKBP (Homo sapiens)
- measurement notes: PPIase Inhibition Assay
- Assay type: biochemical
- cond: concentration of inhibitor required for 50% inhibition of enzyme activity; FKBP, substrate Succinyl-Ala-Phe-Pro-Phe-para-nitroanilide; TABLE I
pIC50: −log10 of the molar value.
measurement kind: pIC50

• CC[C@H](C)[C@H](NC(=O)[C@@H]1CCCN1C(C)C(=O)c1ccccc1)C(=O)NCc1ccccc1 (stereo partly shown) [Example 19] = > 4.30
• CC[C@H](C)[C@H](NC(=O)[C@@H]1CCCN1CC(=O)C(C)(C)C)C(=O)NCc1ccccc1 [Example 26] = > 4.30
• COc1cc(C(=O)CN2CCC[C@H]2C(=O)NCC2CCCCC2)cc(OC)c1OC [Example 141] = < 5.30
• CC[C@H](C)[C@H](NC(=O)[C@@H]1CCCN1CC(=O)C1(c2ccc(C)cc2)CCCCC1)C(=O)NCc1ccccc1 [Example 113] = > 5.30
• CC[C@H](C)[C@H](NC(=O)[C@@H]1CCCN1CC(=O)C12CC3CC(CC(C3)C1)C2)C(=O)NCc1ccc(OC)cc1 [Example 69] = 6.70
• CC[C@H](C)[C@H](NC(=O)[C@@H]1CCCN1CC(=O)OCC=Cc1ccccc1)C(=O)NCc1ccccc1 [Example 84] = 5.49
• CC[C@H](C)[C@H](NC(=O)[C@@H]1CCCN1CC(=O)c1ccc(C)cc1C)C(=O)NCc1ccccc1 [Example 32] = > 5.30
